Measured OD450, listed per entry.
TARGET: T1, human MSLN-R1-his protein (human, UniProt Q13421 296-390)
T1 construct: Region 1 of human mesothelin, made in HEK293E cells, His-tagged; also called human MSLN-R1 protein; hMSLN-R1-his; not shown: His tag
T1 chain: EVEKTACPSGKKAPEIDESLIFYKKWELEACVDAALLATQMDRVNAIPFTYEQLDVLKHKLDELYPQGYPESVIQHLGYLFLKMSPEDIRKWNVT
RUN DESCRIPTION: ELISA on coated MSLN-R1; antibody 1 nM
# unit: OD450 | format: bare number

S009-F8-4.5 (antibody, human IgG1, kappa, V domains shown) VH: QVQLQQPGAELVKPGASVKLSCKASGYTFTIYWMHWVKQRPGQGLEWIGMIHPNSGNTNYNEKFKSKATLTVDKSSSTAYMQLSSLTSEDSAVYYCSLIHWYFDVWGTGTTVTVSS VL: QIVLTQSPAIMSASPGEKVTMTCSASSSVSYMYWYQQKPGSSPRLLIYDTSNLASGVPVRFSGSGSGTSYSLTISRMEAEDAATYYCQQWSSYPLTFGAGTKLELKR    0.05
S009-F8-7.5 (antibody, human IgG1, kappa, V domains shown) VH: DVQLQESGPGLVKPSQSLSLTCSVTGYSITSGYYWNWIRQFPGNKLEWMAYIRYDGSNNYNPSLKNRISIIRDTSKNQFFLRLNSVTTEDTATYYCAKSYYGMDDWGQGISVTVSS VL: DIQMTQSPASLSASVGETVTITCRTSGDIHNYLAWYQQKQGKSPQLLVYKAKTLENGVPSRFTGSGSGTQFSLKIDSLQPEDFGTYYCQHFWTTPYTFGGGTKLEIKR    0.05

Continue with the next binder.
Exercise: Which OD450 value is on record for S009-F8-12.13 (antibody, human IgG1, kappa, V domains shown) VH: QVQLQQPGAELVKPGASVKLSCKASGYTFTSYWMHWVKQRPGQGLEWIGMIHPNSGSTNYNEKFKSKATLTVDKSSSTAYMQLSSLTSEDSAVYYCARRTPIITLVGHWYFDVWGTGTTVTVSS VL: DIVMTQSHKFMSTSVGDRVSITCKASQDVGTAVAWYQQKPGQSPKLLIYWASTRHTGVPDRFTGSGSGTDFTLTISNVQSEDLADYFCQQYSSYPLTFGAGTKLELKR ?
Solution: 2.06

Data origin, for the record: patent US20250250357A1
